# ASSAYED_TARGET: human TRPC6 (Homo sapiens, UniProt Q9Y210)
# Sequence (Q9Y210 1-931): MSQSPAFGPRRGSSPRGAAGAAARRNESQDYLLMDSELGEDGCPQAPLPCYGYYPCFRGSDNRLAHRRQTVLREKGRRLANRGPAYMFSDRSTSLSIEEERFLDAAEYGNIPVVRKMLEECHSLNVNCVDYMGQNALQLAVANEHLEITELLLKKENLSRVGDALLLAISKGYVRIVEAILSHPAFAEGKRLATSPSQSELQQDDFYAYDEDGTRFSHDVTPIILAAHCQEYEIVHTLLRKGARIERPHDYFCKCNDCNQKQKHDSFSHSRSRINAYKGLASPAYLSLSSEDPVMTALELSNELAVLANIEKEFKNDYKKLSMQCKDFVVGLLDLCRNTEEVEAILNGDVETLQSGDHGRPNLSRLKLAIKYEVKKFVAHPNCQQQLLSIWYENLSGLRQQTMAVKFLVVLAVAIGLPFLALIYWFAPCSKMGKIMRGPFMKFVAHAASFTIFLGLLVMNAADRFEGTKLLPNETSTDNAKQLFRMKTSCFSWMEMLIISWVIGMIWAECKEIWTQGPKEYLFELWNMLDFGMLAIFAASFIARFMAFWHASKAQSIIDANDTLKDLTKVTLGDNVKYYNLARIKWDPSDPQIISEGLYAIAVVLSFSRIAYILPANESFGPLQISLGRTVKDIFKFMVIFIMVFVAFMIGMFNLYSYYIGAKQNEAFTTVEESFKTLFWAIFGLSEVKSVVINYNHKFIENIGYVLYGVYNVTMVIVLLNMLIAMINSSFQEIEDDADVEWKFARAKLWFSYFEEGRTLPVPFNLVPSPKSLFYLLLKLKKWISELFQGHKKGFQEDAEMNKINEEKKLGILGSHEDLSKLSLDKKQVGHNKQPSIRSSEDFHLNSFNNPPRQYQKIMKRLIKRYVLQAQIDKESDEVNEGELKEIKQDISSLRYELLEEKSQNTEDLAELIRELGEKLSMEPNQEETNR
# EXPERIMENT_SUMMARY: TRPC6 calcium flux assay (FLIPR, OAG-stimulated calcium influx)
# REPORTED_CONDITIONS: HEK293 cells stably transfected with human TRPC6, read-out: hTRPC6 Potency
REPORTED_METRIC: IC50 (nM)
Respond with the bare value in nM.

Worked examples, 3 compounds total:
1. CN(CC(F)(F)F)C(=O)Cn1c(N2CC[C@@H](F)[C@H](N)C2)nc2ccc(F)cc21 [Example 457] : 13.3
2. N[C@@H]1CN(c2nc3cc(F)c(F)cc3n2Cc2ccccc2Cl)CC[C@H]1F : 133
3. N#Cc1ccc(Cn2c(N3CC[C@@H](F)[C@H](N)C3)nc3cc(F)cc(F)c32)cc1 : 61.7

Okay, now this compound:
Challenge: What value of IC50 has been reported for the following compound? N[C@@H]1CN(c2nc3cc(F)c(F)cc3n2CC(=O)N2CCCC(O)C2)CC[C@H]1F (mixture of isomers)
Response given: 132

* * *

# ASSAYED_TARGET: human TRPC6 (Homo sapiens, UniProt Q9Y210)
# Construct: expressed in transfected cells
# Sequence (Q9Y210 1-931): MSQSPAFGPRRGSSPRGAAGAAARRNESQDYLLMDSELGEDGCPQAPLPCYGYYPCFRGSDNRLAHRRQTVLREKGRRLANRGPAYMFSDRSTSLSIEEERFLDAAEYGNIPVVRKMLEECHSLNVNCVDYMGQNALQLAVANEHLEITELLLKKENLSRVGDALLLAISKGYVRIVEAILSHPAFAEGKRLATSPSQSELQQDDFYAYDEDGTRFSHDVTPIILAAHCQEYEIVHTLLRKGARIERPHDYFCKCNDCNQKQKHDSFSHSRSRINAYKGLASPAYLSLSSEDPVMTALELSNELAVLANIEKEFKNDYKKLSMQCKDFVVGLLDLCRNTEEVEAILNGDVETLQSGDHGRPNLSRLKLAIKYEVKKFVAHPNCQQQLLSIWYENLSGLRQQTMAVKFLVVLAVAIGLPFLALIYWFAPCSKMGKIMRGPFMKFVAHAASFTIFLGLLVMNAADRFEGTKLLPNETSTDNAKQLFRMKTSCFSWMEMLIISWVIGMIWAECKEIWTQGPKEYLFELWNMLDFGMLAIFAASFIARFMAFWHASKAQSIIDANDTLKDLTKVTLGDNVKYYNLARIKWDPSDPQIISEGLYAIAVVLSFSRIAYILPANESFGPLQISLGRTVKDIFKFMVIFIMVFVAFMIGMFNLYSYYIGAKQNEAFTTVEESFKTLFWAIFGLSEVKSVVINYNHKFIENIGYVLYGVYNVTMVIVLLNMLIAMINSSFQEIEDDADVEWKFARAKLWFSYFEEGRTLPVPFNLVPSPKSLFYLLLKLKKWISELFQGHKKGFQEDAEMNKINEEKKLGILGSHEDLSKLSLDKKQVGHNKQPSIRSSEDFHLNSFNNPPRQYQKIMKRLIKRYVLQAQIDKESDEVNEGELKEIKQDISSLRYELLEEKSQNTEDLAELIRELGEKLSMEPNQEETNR
# EXPERIMENT_SUMMARY: TRPC6 calcium flux assay (FLIPR, OAG-stimulated calcium influx)
# Format: cell-based
# REPORTED_CONDITIONS: HEK293 cells stably transfected with human TRPC6, read-out: hTRPC6 Potency
# Method: Biological Example 1 TRPC6 Calcium Flux Assay Potency of TRPC6 (Transient receptor potential channel family C6) inhibitors were measured by their inhibition of Calcium influx trigged by […] (1-Oleoyl-2-acetyl-sn-glycerol, Millipore Sigma, O6754) stimulation on HEK293 cells stablely transfected with human TRPC6 using a FLIPR tetra system. […]
Counter-ions that a name gives are not always drawn.
Entries annotated with measured IC50

Challenge: What value of IC50 has been reported for the following compound? `CC(F)(F)c1ccc(Cn2c(N3CC[C@@H](F)[C@H](N)C3)nc3cc(F)c(F)cc32)cc1`
Response given: 85.3 nM

Challenge: Record: C[C@H](c1ccc(Cl)cn1)n1c(N2CC[C@@H](F)[C@H](N)C2)nc2cc(F)c(F)cc21 [Example 217, hydrochloride]
Response given: 68.7 nM

Challenge: Record: `N[C@@H]1CN(c2nc3ccc(F)cc3n2Cc2ncc(Cl)cn2)CC[C@@H]1F`
Response given: 0.867 nM

Challenge: Record: CO[C@@H]1CCN(c2nc3ccc(F)cc3n2Cc2ncc(Cl)cn2)C[C@H]1N [Example 454]
Response given: 1.52 nM
